experiment: Pharmacokinetics of pimasertib (plasma concentrations) in combination; assay type: in vivo, human; details: human, plasma, oral, DL3a SAR405838 300 mg QD + pimasertib 60 mg QD; C2D1; read-out: Pimasertib AUC0–12, mean ± SD
PARAMETER: AUC(0-t) (ng·h/mL)
Kindly answer with a numeric value in ng·h/mL, unit omitted.

Input: Consider the molecule O=C(NC[C@H](O)CO)c1ccncc1Nc1ccc(I)cc1F and give its recorded AUC(0-t).
Output: 765

---

assay: Pharmacokinetics of pimasertib (plasma concentrations) in combination; assay type: in vivo, human; settings: human, plasma, oral, DL2b SAR405838 300 mg QD + pimasertib 45 mg BID; C2D1; read-out: Pimasertib AUC0–12, mean ± SD
PARAMETER: AUC(0-t) (ng·h/mL)
State the answer as a number, implicitly in ng·h/mL.

Input: Dear colleague, please send me the reported AUC(0-t) for O=C(NC[C@H](O)CO)c1ccncc1Nc1ccc(I)cc1F when you can.
Output: 532

---

experiment: Pharmacokinetics of SAR405838 (whole-blood concentrations) in combination; type: in vivo, human; details: human, whole blood, oral, DL1 SAR405838 200 mg QD + pimasertib 45 mg BID; C1D2; read-out: SAR405838 t1/2 (converted)
PARAMETER: half-life (h)
Provide the reading as a plain figure in h.

Input: Hello, please tell me recorded half-life for this one: CC(C)(C)C[C@@H]1N[C@@H](C(=O)N[C@H]2CC[C@H](O)CC2)[C@H](c2cccc(Cl)c2F)[C@]12C(=O)Nc1cc(Cl)ccc12 [SAR405838]
Output: 16.1

---

test: Pharmacokinetics of SAR405838 (whole-blood concentrations) in combination; assay type: in vivo, human; conditions: human, whole blood, oral, DL2a SAR405838 200 mg QD + pimasertib 60 mg QD; C1D2; read-out: SAR405838 AUC0–24, mean ± SD
PARAMETER: AUC(0-t) (µg·h/mL)
Expressed in µg·h/mL, but write only the number.

Input: Hello, please tell me recorded AUC(0-t) for this one: CC(C)(C)C[C@@H]1N[C@@H](C(=O)N[C@H]2CC[C@H](O)CC2)[C@H](c2cccc(Cl)c2F)[C@]12C(=O)Nc1cc(Cl)ccc12 [SAR405838]
Output: 20.8

---

experiment: Pharmacokinetics of SAR405838 (whole-blood concentrations) in combination; type: in vivo, human; conditions: human, whole blood, oral, DL2a SAR405838 200 mg QD + pimasertib 60 mg QD; C1D2; read-out: SAR405838 tmax, median (range)
PARAMETER: Tmax (h)
Give the value in h but do not write h after it.

Input: Read off the recorded Tmax for CC(C)(C)C[C@@H]1N[C@@H](C(=O)N[C@H]2CC[C@H](O)CC2)[C@H](c2cccc(Cl)c2F)[C@]12C(=O)Nc1cc(Cl)ccc12 [SAR405838]
Output: 2

---

experiment: Pharmacokinetics of SAR405838 (whole-blood concentrations) in combination; assay type: in vivo, human; settings: human, whole blood, oral, DL1 SAR405838 200 mg QD + pimasertib 45 mg BID; C1D2; read-out: SAR405838 tmax, median (range)
PARAMETER: Tmax (h)
Answer in h, number only, no unit symbol.

Input: Return reported Tmax. Input molecule: CC(C)(C)C[C@@H]1N[C@@H](C(=O)N[C@H]2CC[C@H](O)CC2)[C@H](c2cccc(Cl)c2F)[C@]12C(=O)Nc1cc(Cl)ccc12
Output: 2
